Ref: PubChem BioAssay (NCI)

System: SNB-19 CNS
Assay: NCI tumour cell line growth inhibition, 48 h
readoutName: TGI

smilesnotation=N.N.N.N.[Cl-].[Co+3].[N-]=[N+]=[N-].[N-]=[N+]=[N-] systemundertest="SNB-19 CNS" endpointvalue="> 100 µM"
smilesnotation=COc1cc(CNc2ccc(SC)cc2)cc(OC)c1OC systemundertest="SNB-19 CNS" endpointvalue="> 100 µM"

Endpoint output: TGI of CNC(=O)Oc1ccc(-c2cn3cc(OC(=O)NC)ccc3n2)cc1 . Value?
> 100 µM

###

Test system: HCC-2998 colon
Assay: NCI tumour cell line growth inhibition, 48 h
readoutName: TGI

Consider the following illustrative entries.
molecule=C[C@]12CCc3nc(Nc4ccccc4)sc3C1=CC[C@@H]1[C@@H]2CC[C@]2(C)/C(=N/NC(N)=S)CC[C@@H]12 systemundertest="HCC-2998 colon" readoutname=TGI endpointvalue="> 100 µM"
molecule=COc1cccc(-n2c3nc(=O)n(C)c(=O)c-3nc3ccccc32)c1 systemundertest="HCC-2998 colon" readoutname=TGI endpointvalue="38.9 µM"
molecule=O=[N+]([O-])c1ccc2c(c1)C(c1ccccc1Cl)=Nc1cn[nH]c1N2 systemundertest="HCC-2998 colon" readoutname=TGI endpointvalue="> 25 µM"
molecule="COc1ccc(C2c3cc(OC)c(OC)cc3C(Cc3ccc([N+](=O)[O-])cc3)C2c2ccc([N+](=O)[O-])cc2)cc1OC (stereo unspecified)" systemundertest="HCC-2998 colon" readoutname=TGI endpointvalue="> 100 µM"
molecule="O=C(OCC1OC2OC(c3ccccc3)(n3ccc4c([N+](=O)[O-])ccnc43)OC2C1OC(=O)c1ccccc1)c1ccccc1 (stereo unspecified)" systemundertest="HCC-2998 colon" readoutname=TGI endpointvalue="> 100 µM"

Endpoint output: TGI of CC(=O)OC1CC2C(C)(C)OC(=O)CC(OC(C)=O)[C@]2(C)C2CCC3(C)C(=CCC3[C@H]3COC(=O)C3)[C@]12C (stereo partly specified) . Value?
> 100 µM

Endpoint output: TGI of CCCCCC(=O)NC(=S)Nc1nn[nH]n1 . Value?
> 100 µM

Endpoint output: TGI of NP(=O)(OCC1=CC(=O)c2ccccc2C1=O)N(CCBr)CCBr (stereo unspecified) . Value?
34.3 µM

Endpoint output: TGI of COC(=O)C1=CC(=O)OC1(OO)c1ccccc1 (stereo unspecified) . Value?
> 100 µM

Endpoint output: TGI of O=C(Cc1ccccc1)NN1C(=O)/C(=C\c2cccc(O)c2)SC1=Nc1ccccc1 . Value?
> 100 µM

Endpoint output: TGI of C[C@]12CC[C@@H]3c4ccc(O)cc4CC[C@H]3[C@@H]1CC[C@@H]2NS(=O)(=O)c1cccc(F)c1 . Value?
16.9 µM
